Molecular target: hα3β4 AChR (Homo sapiens, UniProt P30926+P32297)
Sequence (P32297 32-505): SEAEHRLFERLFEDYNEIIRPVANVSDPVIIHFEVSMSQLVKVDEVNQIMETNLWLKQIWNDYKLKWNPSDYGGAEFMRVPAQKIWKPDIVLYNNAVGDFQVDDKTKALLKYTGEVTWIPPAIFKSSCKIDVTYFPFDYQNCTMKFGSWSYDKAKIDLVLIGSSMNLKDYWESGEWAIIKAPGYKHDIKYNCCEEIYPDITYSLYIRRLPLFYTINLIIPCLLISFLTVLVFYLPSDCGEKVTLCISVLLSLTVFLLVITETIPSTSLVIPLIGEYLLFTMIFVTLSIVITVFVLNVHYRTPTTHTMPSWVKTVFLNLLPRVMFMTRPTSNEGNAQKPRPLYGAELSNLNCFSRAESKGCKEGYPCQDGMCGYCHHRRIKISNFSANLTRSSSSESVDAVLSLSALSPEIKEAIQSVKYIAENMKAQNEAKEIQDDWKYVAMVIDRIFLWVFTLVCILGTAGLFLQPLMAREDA
Sequence (P30926 22-498): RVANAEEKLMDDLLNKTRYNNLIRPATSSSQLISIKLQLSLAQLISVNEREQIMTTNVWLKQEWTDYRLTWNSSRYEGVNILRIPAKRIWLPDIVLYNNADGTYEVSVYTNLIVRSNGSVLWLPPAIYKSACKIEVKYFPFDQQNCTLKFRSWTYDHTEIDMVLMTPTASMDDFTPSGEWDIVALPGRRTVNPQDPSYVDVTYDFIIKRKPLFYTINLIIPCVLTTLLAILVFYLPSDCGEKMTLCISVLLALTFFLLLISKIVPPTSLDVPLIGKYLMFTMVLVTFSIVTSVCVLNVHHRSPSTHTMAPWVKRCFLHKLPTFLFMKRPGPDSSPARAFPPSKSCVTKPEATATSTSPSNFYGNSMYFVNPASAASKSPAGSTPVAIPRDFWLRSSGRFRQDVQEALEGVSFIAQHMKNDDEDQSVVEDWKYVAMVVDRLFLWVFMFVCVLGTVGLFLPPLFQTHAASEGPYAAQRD
Assay type: binding
endpointName: Ki (µM)
Answers are plain numbers, in µM.

# input Sample c1ccc(C2(N3CCCCC3)CCCCC2)cc1 — what was its Ki?
# output 10

====

Target: hα3β4 AChR (Homo sapiens, UniProt P30926+P32297)
Format: binding
endpointName: Ki (µM)
Answers are plain numbers, in µM.

# input Return reported Ki; argument: c1ccc(C2(N3CCCCC3)CCCCC2)cc1
# output 17

// data source = paper PMC4609575
